tested target: rat NaPi-2b (Rattus norvegicus, UniProt Q9JJ09)
Sequence (Q9JJ09 whole entry): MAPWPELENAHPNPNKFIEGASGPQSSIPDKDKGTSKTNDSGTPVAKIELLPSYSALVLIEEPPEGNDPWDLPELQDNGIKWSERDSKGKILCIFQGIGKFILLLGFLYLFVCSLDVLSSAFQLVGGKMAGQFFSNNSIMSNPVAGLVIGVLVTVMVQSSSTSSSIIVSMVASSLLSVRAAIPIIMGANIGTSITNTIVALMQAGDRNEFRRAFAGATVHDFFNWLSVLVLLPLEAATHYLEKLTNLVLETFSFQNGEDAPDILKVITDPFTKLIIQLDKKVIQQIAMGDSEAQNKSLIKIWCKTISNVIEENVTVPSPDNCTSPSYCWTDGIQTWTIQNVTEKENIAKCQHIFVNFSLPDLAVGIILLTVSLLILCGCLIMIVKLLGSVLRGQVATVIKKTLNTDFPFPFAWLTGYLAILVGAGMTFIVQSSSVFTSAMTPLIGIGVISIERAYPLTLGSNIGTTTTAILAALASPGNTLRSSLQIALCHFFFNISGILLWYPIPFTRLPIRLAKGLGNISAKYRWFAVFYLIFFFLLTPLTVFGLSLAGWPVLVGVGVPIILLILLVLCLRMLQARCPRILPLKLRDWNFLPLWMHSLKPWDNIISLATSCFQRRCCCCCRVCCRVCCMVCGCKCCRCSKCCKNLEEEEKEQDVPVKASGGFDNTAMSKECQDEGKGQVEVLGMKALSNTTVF
assay: Sodium-dependent phosphate uptake of Xenopus oocytes which expressed NaPi-2b (32P)
protocol conditions: Xenopus oocytes expressing rat NaPi-2b, 32P radioactive phosphorus; read-out: IC50 (phosphate uptake inhibitory activity)
Rule for this label: label 1 means IC50 is less than 4 µM; label 0 means IC50 is at least 4 µM.

Cc1ccc(/C=N/NC(=O)c2cc(OCCCCF)ccc2NC(=O)c2cccc(CSCCO)c2)cc1C [Compound 1053]
label 1
CCN(CC)CCN(C)Cc1cccc(C(=O)Nc2ccc(N3CCCC3)cc2C(=O)N/N=C/c2ccc(Cl)c(C(F)(F)F)c2)c1 [Compound 917]
label 1
COc1ccc(/C=N/NC(=O)c2cc(Br)ccc2NC(=O)c2ccc(OC)c(OC)c2)cc1OC [Compound 127]
label 0
O=C(Nc1sc2c(c1C(=O)N/N=C/c1ccc(Cl)c(C(F)(F)F)c1)CCCC2)c1cccc(CN2CCN(CCO)CC2)c1 [Compound 625]
label 1
CCN(CCO)Cc1ccc(C(=O)Nc2ccc(Cl)cc2C(=O)N/N=C/c2cccc(C)c2)cc1 [Compound 434]
label 0
Cc1cc(C(=O)Nc2ccccc2C(=O)N/N=C/c2ccc(F)cc2)c(C)o1 [Compound 515]
label 1
COc1ccc(/C=N/NC(=O)c2c(C)csc2NC(=O)c2cccc(CN3CCC(O)CC3)c2)cc1 [Compound 598]
label 0
Cc1ccc(/C=N/NC(=O)c2c(C)csc2NC(=O)c2cccc(CN3CCC(CO)CC3)c2)cc1C [Compound 599]
label 1
O=C(Nc1ccc(Br)cc1C(=O)N/N=C/c1ccc(Cl)c(C(F)(F)F)c1)c1ccc(CN2CCC(CO)CC2)cc1 [Compound 337]
label 1
O=C(Nc1ccc(Br)cc1C(=O)N/N=C/c1ccc(Cl)c(C(F)(F)F)c1)c1ccc(CN2CCC(N3CCCCC3)CC2)cc1 [Compound 313]
label 1
O=C(Nc1ccccc1C(=O)N/N=C/c1ccccc1)c1ccccc1 [Compound 224]
label 0
COc1ccc(/C=N/NC(=O)c2cc(OC)ccc2NC(=O)c2cccc(CSCC(O)CO)c2)cc1 (centres unmarked) [Compound 1021]
label 0
CCN(CCO)Cc1ccc(C(=O)Nc2ccc(Cl)cc2C(=O)N/N=C/c2ccc(F)cc2)cc1 [Compound 433]
label 0
Cc1cccc(/C=N/NC(=O)c2cc(Cl)ccc2NC(=O)c2cccc(CSc3nnnn3CCN(C)C)c2)c1 [Compound 464]
label 0
CCOc1cc(/C=N/NC(=O)c2ccccc2NC(=O)c2ccc(OC)c(OC)c2)ccc1O [Compound 37]
label 0
Cc1ccc(/C=N/NC(=O)c2c(NC(=O)c3cccc(CN(CC(C)O)CC(C)O)c3)sc(C)c2C)cc1 (centres unmarked) [Compound 845]
label 1
Cc1ccc(/C=N/NC(=O)c2c(C)csc2NC(=O)c2cccc(CN3CCC4(CC3)OCCO4)c2)cc1 [Compound 833]
label 0
CCN(CC)CCN(C)Cc1cccc(C(=O)Nc2ccc(I)cc2C(=O)N/N=C/c2ccc(C)c(C)c2)c1 [Compound 476]
label 1
O=C(Nc1sc2c(c1C(=O)N/N=C/c1ccc(F)cc1)CCCC2)c1cccc(CN2CCC(N3CCCCC3)CC2)c1 [Compound 617]
label 1
Cc1ccc(/C=N/NC(=O)c2cc(Cl)ccc2NC(=O)c2ccncc2)cc1C [Compound 193]
label 0
Cc1ccc(/C=N/NC(=O)c2cc(OCCN3CCCCC3)ccc2NC(=O)c2cccc(CSCCO)c2)cc1C [Compound 1043]
label 0
O=C(Nc1ccc(Br)cc1C(=O)N/N=C/c1cccc(F)c1)c1ccc(CN2CCN(CC(=O)N3CCOCC3)CC2)cc1 [Compound 731]
label 0
Cc1ccc(/C=N/NC(=O)c2cc(Br)ccc2NC(=O)c2ccc(CN3CCC(CO)CC3)cc2)cc1C [Compound 332]
label 1
O=C(Nc1ccc(Br)cc1C(=O)N/N=C/c1ccc(Cl)c(C(F)(F)F)c1)c1ccc(CSCCCO)cc1 [Compound 278]
label 1
Cc1csc(NC(=O)c2cccc(CN(CC(C)O)CC(C)O)c2)c1C(=O)N/N=C/c1ccc(Cl)c(C(F)(F)F)c1 (centres unmarked) [Compound 591]
label 1
CCN(CCO)Cc1cccc(C(=O)Nc2ccc(Cl)cc2C(=O)N/N=C/c2cccc(O)c2)c1 [Compound 430]
label 0
Cc1cccc(/C=N/NC(=O)c2cc(Br)ccc2NC(=O)c2cccc(CSc3ccncc3)c2)c1 [Compound 197]
label 0
CCN(CC)CCN(C)Cc1cccc(C(=O)Nc2ccc(OCCCCF)cc2C(=O)N/N=C/c2ccc(Cl)c(C(F)(F)F)c2)c1 [Compound 1060]
label 1
